Tested on: Escherichia coli TOP10
Test: shrunken log2 fold change of peptide-encoding DNA abundance (4.5 h post-induction vs induction); higher = less antimicrobial activity (less host growth inhibition)
Conditions: time post-induction: 4.5 h; library: site-saturation at positions 5, 18, 19, 20
Quantity: shrunken log2 fold change

Input sequence	Quantity	Test result
RRIRARPPRLPRPRPRPTEAPRP	shrunken log2 fold change	0.453
RRIRTRPPRLPRPRPRPNDYPRP	shrunken log2 fold change	-0.523
RRIRMRPPRLPRPRPRPQFTPRP	shrunken log2 fold change	0.095
RRIRSRPPRLPRPRPRPRGWPRP	shrunken log2 fold change	0.624
RRIRHRPPRLPRPRPRPAQAPRP	shrunken log2 fold change	0.183
RRIRLRPPRLPRPRPRPWQVPRP	shrunken log2 fold change	0.0253
RRIRFRPPRLPRPRPRPHFCPRP	shrunken log2 fold change	-1.02
RRIRIRPPRLPRPRPRPVAYPRP	shrunken log2 fold change	-0.0713

====

System: Escherichia coli TOP10;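 also: peptides expressed intracellularly from a pBAD plasmid library in pooled LB shake-flask culture, induced with 0.3% L-arabinose, DNA abundance read by NGS, three biological replicates, DESeq2 with apeglm shrinkage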
Assay: shrunken log2 fold change of peptide-encoding DNA abundance (4.5 h post-induction vs induction); higher = less antimicrobial activity (less host growth inhibition)
Conditions: time post-induction: 4.5 h; library: site-saturation at positions 5, 18, 19, 20
We begin with a simple list: items and their reported shrunken log2 fold change.
Quantity: shrunken log2 fold change

Input sequence	Quantity	Test result
RRIRARPPRLPRPRPRPTDEPRP	shrunken log2 fold change	0.594
RRIRHRPPRLPRPRPRPIYDPRP	shrunken log2 fold change	-0.436
RRIRRRPPRLPRPRPRPTYTPRP	shrunken log2 fold change	-0.214
RRIRYRPPRLPRPRPRPEFNPRP	shrunken log2 fold change	-0.221
RRIRSRPPRLPRPRPRPSLHPRP	shrunken log2 fold change	-0.385
RRIRSRPPRLPRPRPRPMMWPRP	shrunken log2 fold change	0.598
RRIRKRPPRLPRPRPRPFTKPRP	shrunken log2 fold change	-0.0833
RRIRCRPPRLPRPRPRPATMPRP	shrunken log2 fold change	-0.0924
RRIRDRPPRLPRPRPRPHMKPRP	shrunken log2 fold change	-0.467
RRIRGRPPRLPRPRPRPRMLPRP	shrunken log2 fold change	0.356
RRIRYRPPRLPRPRPRPRCNPRP	shrunken log2 fold change	-0.552
RRIRSRPPRLPRPRPRPIRSPRP	shrunken log2 fold change	0.0127
RRIRRRPPRLPRPRPRPNTQPRP	shrunken log2 fold change	0.0214
RRIRGRPPRLPRPRPRPKNRPRP	shrunken log2 fold change	0.368
RRIRPRPPRLPRPRPRPDLHPRP	shrunken log2 fold change	-0.316
RRIRVRPPRLPRPRPRPSSPPRP	shrunken log2 fold change	-0.269
RRIRRRPPRLPRPRPRPNMVPRP	shrunken log2 fold change	-0.0449
RRIRGRPPRLPRPRPRPFHVPRP	shrunken log2 fold change	-0.0412
RRIRNRPPRLPRPRPRPYHNPRP	shrunken log2 fold change	-0.275
RRIRARPPRLPRPRPRPVLFPRP	shrunken log2 fold change	0.268
RRIRRRPPRLPRPRPRPFWKPRP	shrunken log2 fold change	0.111
RRIRTRPPRLPRPRPRPWVGPRP	shrunken log2 fold change	-0.155
RRIRVRPPRLPRPRPRPIAEPRP	shrunken log2 fold change	0.127
RRIRWRPPRLPRPRPRPIQHPRP	shrunken log2 fold change	0.00853
RRIRPRPPRLPRPRPRPNQNPRP	shrunken log2 fold change	-0.178
RRIRPRPPRLPRPRPRPCIQPRP	shrunken log2 fold change	-0.209
RRIRTRPPRLPRPRPRPVHEPRP	shrunken log2 fold change	0.247
RRIRNRPPRLPRPRPRPESIPRP	shrunken log2 fold change	-0.24
RRIRQRPPRLPRPRPRPTYSPRP	shrunken log2 fold change	0.0402
RRIRWRPPRLPRPRPRPPCHPRP	shrunken log2 fold change	0.0912
RRIRERPPRLPRPRPRPKYMPRP	shrunken log2 fold change	0.822
RRIRVRPPRLPRPRPRPGWVPRP	shrunken log2 fold change	0.0954
